Literature-derived Ki for Muscarinic acetylcholine receptor M2 (Homo sapiens) follows.
Biological target: Muscarinic acetylcholine receptor M2 (Homo sapiens)
Sequence (P08172 whole entry): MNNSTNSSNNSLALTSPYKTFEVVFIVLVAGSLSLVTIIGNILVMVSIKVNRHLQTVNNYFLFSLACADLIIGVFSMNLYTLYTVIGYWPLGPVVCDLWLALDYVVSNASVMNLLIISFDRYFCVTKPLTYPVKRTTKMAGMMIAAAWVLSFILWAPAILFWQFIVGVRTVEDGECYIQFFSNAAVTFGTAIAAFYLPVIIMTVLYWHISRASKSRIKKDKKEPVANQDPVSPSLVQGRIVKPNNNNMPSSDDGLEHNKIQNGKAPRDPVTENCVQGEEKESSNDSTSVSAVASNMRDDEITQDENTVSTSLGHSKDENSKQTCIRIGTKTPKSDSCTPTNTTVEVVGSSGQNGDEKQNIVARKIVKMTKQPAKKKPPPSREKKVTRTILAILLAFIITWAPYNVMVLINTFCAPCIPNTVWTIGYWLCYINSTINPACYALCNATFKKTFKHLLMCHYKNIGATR
measureName: Ki

> print(dat)
                                   compound                        targetortestsystem  measurename  recordedvalue
1  NCCCCCCCCN1CCC(OC(=O)Nc2ccc(F)cc2-c2ccc(F)c(Cl)c2)CC1  Muscarinic acetylcholine receptor M2 (Homo sapiens)           Ki         1.7 nM
2           O=C(CN1CCc2ccc(Br)cc21)N1CCCCC1  Muscarinic acetylcholine receptor M2 (Homo sapiens)           Ki    > 100000 nM
3  CC(C)S(=O)(=O)N1CCC(N2CCC(Oc3ccc(S(=O)(=O)c4ccc5c(c4)OCO5)cc3)CC2)CC1  Muscarinic acetylcholine receptor M2 (Homo sapiens)           Ki          14 nM
4   CCN(CC)CCOCCOC(=O)C1(c2ccc(Cl)cc2)CCCC1  Muscarinic acetylcholine receptor M2 (Homo sapiens)           Ki          97 nM
5  O=S(=O)(c1ccc(OC2CCN(C3CCN(S(=O)(=O)Cc4ccccc4)CC3)CC2)cc1)c1ccc2c(c1)OCO2  Muscarinic acetylcholine receptor M2 (Homo sapiens)           Ki          15 nM
6  CCN(CCCCC1CCN(CC(=O)N2c3ccccc3C(=O)N(C(=O)c3ccc(F)cc3)c3ccccc32)CC1)C(=O)c1ccc(F)cc1  Muscarinic acetylcholine receptor M2 (Homo sapiens)           Ki        46.9 nM
7    CN(C)CCOC(=O)C1=C(Cc2ccccn2)c2ccccc2C1  Muscarinic acetylcholine receptor M2 (Homo sapiens)           Ki        4900 nM
8  C[N+]1(CCCC(O)(c2ccccc2)c2ccccc2)CCN(CCCC(O)(c2ccccc2)c2ccccc2)CC1  Muscarinic acetylcholine receptor M2 (Homo sapiens)           Ki        2290 nM
9  CC(C1=C(CN(C)C)Cc2ccccc21)c1ccccn1 (centres undefined)  Muscarinic acetylcholine receptor M2 (Homo sapiens)           Ki        12.3 nM
